target: human Lck enzyme (Homo sapiens); construct: purchased Carna Biosciences, Inc. 08-170; experiment: Lck enzyme inhibitory activity (time-resolved fluorometry, biotinylated peptide phosphorylation); format: biochemical; details: read-out: LCK_IC50
Sequence (P06239 whole entry): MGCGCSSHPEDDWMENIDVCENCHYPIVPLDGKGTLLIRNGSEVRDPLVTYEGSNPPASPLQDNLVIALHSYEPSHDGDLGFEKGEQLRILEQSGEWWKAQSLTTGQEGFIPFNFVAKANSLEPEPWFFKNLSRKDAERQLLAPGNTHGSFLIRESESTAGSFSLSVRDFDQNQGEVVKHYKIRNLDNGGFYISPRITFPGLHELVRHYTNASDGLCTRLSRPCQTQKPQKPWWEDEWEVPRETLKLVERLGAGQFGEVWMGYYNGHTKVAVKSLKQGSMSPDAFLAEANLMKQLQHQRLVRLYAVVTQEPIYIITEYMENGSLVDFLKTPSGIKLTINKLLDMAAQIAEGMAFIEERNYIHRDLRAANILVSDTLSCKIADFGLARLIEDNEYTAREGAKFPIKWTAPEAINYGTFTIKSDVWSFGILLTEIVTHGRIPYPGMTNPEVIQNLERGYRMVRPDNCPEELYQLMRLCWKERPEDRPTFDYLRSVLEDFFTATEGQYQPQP
Measurement Type: IC50 (nM)

// worked examples, IC50 included
{"columns": ["Compound", "Unit Abbrev", "Reported"],
 "data": [
  ["Cc1cc2cc(C(=O)c3cnn(-c4ccc(Oc5ccccc5F)cc4C)c3N)[nH]c2cc1N1C(=O)[C@@H]2C[C@H](NC(=O)OCC3c4ccccc4-c4ccccc43)CN2C1=O [Example 5-1-268]", "nM", 31],
  ["Cc1cc(Oc2c(F)cccc2F)ncc1-n1ncc(C(=O)c2cc3cc(OC4CCN(C5CS(=O)(=O)C5)CC4)c(Br)cc3[nH]2)c1N [Example 5-1-228]", "nM", 3.1],
  ["Cc1cc(Oc2ccccc2F)ccc1-n1ncc(C(=O)c2cc3cc(OCC(F)F)c(NS(=O)(=O)C4CCOCC4)cc3[nH]2)c1N [Example 5-1-325]", "nM", 18],
  ["Cc1cc(Oc2c(F)cccc2F)ncc1-n1ncc(C(=O)c2cc3cc(F)c(-n4c(C)cc(=O)[nH]c4=O)cc3[nH]2)c1N [Example 5-1-101]", "nM", 1.1],
  ["Cc1cc(Oc2cc(F)cc(F)c2)ncc1-n1ncc(C(=O)c2cc3cc(F)c(NS(C)(=O)=O)cc3[nH]2)c1N [Example 5-1-038]", "nM", 66]
]}

[A] Cc1cc(-n2ncc(C(=O)c3cc4cc(N5CCOCC5)c(Br)cc4[nH]3)c2N)ccc1Oc1ccccc1F [Example 5-1-151]
[B] Cc1cc(Oc2c(F)cccc2F)ncc1-n1ncc(C(=O)c2cc3cc(N4CCOCC4)c(Br)cc3[nH]2)c1N [Example 5-1-155]
Choose between A and B : whose measured IC50 value is numerically larger? Mark your answer with the label of the selected entry.
A
(A: 80 nM, B: 12 nM)
